Data origin, for the record: PubChem BioAssay (NCI)

Reported growth values are given for each entry in this list.
- Tested on: UO-31 renal
- Assay details: NCI-60 one-dose screen, 48 h (100 = growth as untreated, 0 = no growth, -100 = all killed)
- Measurement conditions: 10 µM unless noted
Compounds without any hit were thinned out: in the full panel of roughly 83,000, 20% have a hit. Active and inactive are the calls of the source. The calls were made as follows: active = growth percent below 10; inactive = the rest.

Examples with their reported growth follow.
Cc1cc(O)cc2c1[C@H]1CC[C@]3(C)[C@@H](O)CC[C@H]3[C@@H]1C=C2 = 98.4% (inactive)
O=[N+]([O-])c1ccc(C=C2C(Cl)=C(Cl)C(Cl)=C2Cl)cc1 = -19.8% (active)
O=S(=O)(Nc1ccccc1Cl)c1ccc(-c2cnc(C3CC3)o2)cc1 = 49.8% (inactive)
CCCCCCCCCCCC(=O)[O][Sn]([CH2]CCC)([CH2]CCC)[CH2]CCC = -97.9% (active)

Here's the next entry for you.
Prompt: Give UO-31 renal growth for `Cc1nn(CC(=O)O)c2c1C(=O)CC(C)(C)C2`
Completion: 74% (inactive)
